The origin of these recorded values is patent US4096259A.

Test system: exploration response in mice
Experiment: Psychostimulating activity: increase of exploration response in mice (actimetry)
Type: in vivo
Conditions: Mus musculus, po, per os, dose which increases exploration response by 50%
assayReadout: ED50

# example entries with known answers
Entry under test: CCOC(=O)CCN1CCN(CCOC(c2ccccc2)c2ccc(Cl)cc2)CC1 (centres unmarked) [Derivative 18] . Its ED50 was 30 mg/kg

Value of ED50 reported for the molecule CCOC(=O)CCN1CCN(CCOC(c2ccc(C)cc2)c2ccc(F)cc2)CC1 (centres unmarked) [Derivative 22] is 35 mg/kg

Item: O=C(O)CCCN1CCN(CCOC(c2ccccc2)c2ccc(F)cc2)CC1 (centres unmarked) [Derivative 12] | ED50: 35 mg/kg

ED50 in this record for O=C(O)CCN1CCN(CCOC(c2ccccc2)c2ccccc2)CC1 [Derivative 2] : 80 mg/kg

For this molecule ( CCOC(=O)CCN1CCN(CCCOC(c2ccccc2)c2ccc(F)cc2)CC1 (centres unmarked) [Derivative 28] ), measured ED50 is < 100 mg/kg

In plain terms, O=C(CN1CCN(CCOC(c2ccc(F)cc2)c2ccc(F)cc2)CC1)N1CCN(Cc2ccc3c(c2)OCO3)CC1 [Derivative 34] has a documented ED50 of 160 mg/kg

Continuing:
# molecule CCCCCCOC(=O)CCN1CCN(CCOC(c2ccc(F)cc2)c2ccc(F)cc2)CC1 [Derivative 26] ; its ED50 = 200 mg/kg

COc1cc(C(OCCN2CCN(CCC(=O)O)CC2)c2ccccc2)cc(OC)c1OC (centres unmarked) [Derivative 10] yielded ED50 of > 400 mg/kg

Recorded ED50 (molecule O=C(O)CCN1CCN(CCOC(c2ccccc2)c2ccc(F)cc2)CC1 (centres unmarked) [Derivative 5] ): 22 mg/kg

Sure, the documented ED50 for NC(=O)CCN1CCN(CCOC(c2ccccc2)c2ccccc2)CC1 [Derivative 30] is 80 mg/kg

----------
Assay: Acute toxicity (LD50) in mice, per os
Details: mouse, in vivo, po
The label TRUE is reserved for LD50 strictly under 1000 mg/kg; FALSE covers values equal to or above it.

Incoming: Does CCOC(=O)CCN1CCN(CCOC(c2ccc(F)cc2)c2ccc(F)cc2)CC1.Cl.Cl have LD50 strictly under 1000 mg/kg?
Outgoing: TRUE

Incoming: Find out if reported LD50 for O=C(CN1CCN(CCOC(c2ccccc2)c2ccccc2)CC1)N1CCOCC1 is less than 1000 mg/kg
Outgoing: TRUE

Incoming: For this molecule, is LD50 lower than 1000 mg/kg? O=C(CN1CCN(CCOC(c2ccc(F)cc2)c2ccc(F)cc2)CC1)N1CCN(Cc2ccc3c(c2)OCO3)CC1
Outgoing: FALSE

Incoming: Please indicate whether the reported LD50 of O=C(O)CCCCN1CCN(CCOC(c2ccccc2)c2ccc(F)cc2)CC1 (stereo not drawn) is strictly below 1000 mg/kg.
Outgoing: FALSE

Incoming: Identify whether the molecule N#CCCN1CCN(CCOC(c2ccccc2)c2ccccc2)CC1 records LD50 below 1000 mg/kg.
Outgoing: TRUE

Incoming: Hi there! Is LD50 for O=C(O)CN1CCN(CCOC(c2ccccc2)c2ccccc2)CC1 below 1000 mg/kg, do you know?
Outgoing: FALSE

Incoming: Criterion: LD50 strictly below 1000 mg/kg. Is it met by CCOC(=O)CCN1CCN(CCCOC(c2ccccc2)c2ccccc2)CC1 ?
Outgoing: TRUE

Incoming: Hello, is LD50 of the following molecule strictly smaller than 1000 mg/kg? CCOC(=O)CCCN1CCN(CCOC(c2ccc(F)cc2)c2ccc(F)cc2)CC1
Outgoing: TRUE

Further cases:
Incoming: Please let me know if COc1cc(C(OCCN2CCN(CCC(=O)O)CC2)c2ccccc2)cc(OC)c1OC (stereo not drawn) shows LD50 below 1000 mg/kg.
Outgoing: FALSE

Incoming: Please check: LD50 for CCCC(OCCN1CCN(CCC(=O)O)CC1)c1ccccc1 (stereo not drawn) , strictly under 1000 mg/kg or not?
Outgoing: FALSE

Incoming: # TODO verify LD50 < 1000 mg/kg strictly for this molecule: COC(=O)CCCCN1CCN(CCOC(c2ccc(F)cc2)c2ccc(F)cc2)CC1
Outgoing: TRUE
